experiment: Microsomal stability; assay type: in vitro ADME; settings: pH 7.4; human liver microsomes; read-out: Human Metabolic Stability Half Life
Catalogue of compounds with associated half-life at 2 μM
Report as a plain number; the unit h is understood.

For record O=C(NC12CC3CC(CC(C3)C1)C2)NS(=O)(=O)c1ccc2ccccc2c1 the listed half-life at 2 μM is 0.557

In the following, a different compound is considered.
For record O=C(NC12CC3CC(CC(C3)C1)C2)NS(=O)(=O)c1ccc(OC(F)(F)F)cc1 the listed half-life at 2 μM is 1.77

====

Catalogue of compounds with associated Human sEH % Inhibition
Biological target: human recombinant sEH (Homo sapiens)
Construct: purchased Cayman Chemical 10011671
Sequence (P34913 1-555): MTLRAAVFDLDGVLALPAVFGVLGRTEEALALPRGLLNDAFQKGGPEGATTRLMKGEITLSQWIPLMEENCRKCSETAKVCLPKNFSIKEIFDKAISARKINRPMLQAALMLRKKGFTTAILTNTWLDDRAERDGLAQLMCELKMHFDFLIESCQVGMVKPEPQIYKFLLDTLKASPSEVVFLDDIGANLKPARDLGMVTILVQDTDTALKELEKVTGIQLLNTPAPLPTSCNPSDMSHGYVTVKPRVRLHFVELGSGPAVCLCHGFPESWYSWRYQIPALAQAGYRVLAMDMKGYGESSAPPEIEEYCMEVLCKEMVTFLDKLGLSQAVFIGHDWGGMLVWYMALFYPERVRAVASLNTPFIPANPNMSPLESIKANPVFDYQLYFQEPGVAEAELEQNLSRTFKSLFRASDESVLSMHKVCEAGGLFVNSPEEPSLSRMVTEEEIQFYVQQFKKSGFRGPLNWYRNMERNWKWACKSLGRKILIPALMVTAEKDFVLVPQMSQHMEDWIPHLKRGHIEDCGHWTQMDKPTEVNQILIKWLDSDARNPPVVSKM
Assay: Fluorescence-based sEH activity assay (PHOME substrate), human enzyme
Format: biochemical
Report as a plain number; the unit % is understood.

Consider the worked cases shown below.
For record N#Cc1ccc(S(=O)(=O)NC(=O)NC23CC4CC(CC(C4)C2)C3)cc1 [Compound 4i] the listed Human sEH % Inhibition is 19.36

For record COc1ccc(S(=O)(=O)NC(=S)NC23CC4CC(CC(C4)C2)C3)cc1 [Compound 6c] the listed Human sEH % Inhibition is 2.50

For record O=C(NC12CC3CC(CC(C3)C1)C2)NS(=O)(=O)c1ccccc1 [Compound 4a] the listed Human sEH % Inhibition is 93.61

For record Cc1ccc(S(=O)(=O)NC(=O)NC23CC4CC(CC(O)(C4)C2)C3)cc1 [Compound 10a] the listed Human sEH % Inhibition is 22.47

For record O=C(NC1C2CC3CC(C2)CC1C3)NS(=O)(=O)c1ccc(OC(F)(F)F)cc1 (centres unmarked) [Compound 12] the listed Human sEH % Inhibition is 34.53

More entries:
For record O=C(NC12CC3CC(CC(C3)C1)C2)NS(=O)(=O)c1ccc2ccccc2c1 [Compound 4l] the listed Human sEH % Inhibition is 96.79

For record O=S(=O)(NC(=S)NC12CC3CC(CC(C3)C1)C2)c1ccccc1 [Compound 6a] the listed Human sEH % Inhibition is 84.56

For record O=C(NC12CC3CC(CC(C3)C1)C2)NS(=O)(=O)c1ccc(Cl)cc1 [Compound 4k] the listed Human sEH % Inhibition is 96.47
